Attribution: ChEMBL document CHEMBL5625159

target: Isocitrate dehydrogenase [NADP] cytoplasmic (Homo sapiens); test: Inhibition of wild type IDH1 (unknown origin)
pIC50: −log10 of the molar value.
METRIC NAME: pIC50

In: Lab note: record pIC50 of C=CC(C)(C)c1cc(/C=C/C(=O)c2ccc(O)cc2)c(OC)cc1O tested on Isocitrate dehydrogenase [NADP] cytoplasmic (Homo sapiens).
Out: < 4.00

----------
target: Isocitrate dehydrogenase [NADP] cytoplasmic (Homo sapiens, UniProt O75874, R132H); assay: Inhibition of C-terminal Hexahistidine-tagged human recombinant IDH1 R132H mutant expressed in Escherichia coli BL21 (DE3) cells assessed as NADPH consumption in presence of alpha KG incubated for 1 hr by MST assay
Sequence (O75874 2-414 R132H limits assumed): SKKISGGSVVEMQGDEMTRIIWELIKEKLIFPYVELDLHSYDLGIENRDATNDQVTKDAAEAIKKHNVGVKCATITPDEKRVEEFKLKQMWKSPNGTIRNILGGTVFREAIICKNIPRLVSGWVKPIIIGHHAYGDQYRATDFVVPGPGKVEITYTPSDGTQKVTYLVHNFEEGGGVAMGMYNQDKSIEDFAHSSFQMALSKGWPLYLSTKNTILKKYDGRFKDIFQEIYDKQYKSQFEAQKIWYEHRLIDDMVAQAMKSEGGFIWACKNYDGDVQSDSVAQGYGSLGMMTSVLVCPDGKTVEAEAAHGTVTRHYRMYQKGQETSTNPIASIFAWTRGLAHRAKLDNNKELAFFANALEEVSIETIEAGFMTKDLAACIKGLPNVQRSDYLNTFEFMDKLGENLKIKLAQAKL
METRIC NAME: pIC50
Reminder that pIC50 is minus the log10 of a molar concentration.

In: Consider the molecule CCN(CC)CCOc1ccc(/C(=C(\Cl)c2ccccc2)c2ccccc2)cc1 tested on Isocitrate dehydrogenase [NADP] cytoplasmic (Homo sapiens, UniProt O75874, R132H); state its pIC50.
Out: 4.30

----------
biological target: Isocitrate dehydrogenase [NADP] cytoplasmic (Homo sapiens, UniProt O75874, R132H); test: Inhibition of human recombinant IDH1 R132H mutant expressed in Escherichia coli BL21 (DE3) cells in presence of alpha-ketoglutarate and NADPH by fluorescence based biochemical assay
METRIC NAME: pIC50
To interpret pIC50, take it as minus log10 of a concentration measured in moles per litre.

# count of solved cases: 2
INSERT INTO results (smiles_text, metric_name, measurement) VALUES
  ('Cc1cccc(NC(=O)c2nn(Cc3c[nH]cn3)c3c2CN(C(=O)c2ccc[nH]2)CC3)c1', 'pIC50', 7.96),
  ('COc1c(C)cc(NC(=O)c2nn(Cc3ccc(F)cc3)c3c2CN(C(=O)c2ccc[nH]2)C[C@@H]3C(N)=O)cc1C', 'pIC50', 7.82);

Shift focus to the following entry.
In: Specify measured pIC50 for O=C(Nc1ccccc1)c1nn(Cc2ccc(F)cc2)c2c1CN(C(=O)c1ccc[nH]1)CC2 .
Out: 6.23

----------
target: Isocitrate dehydrogenase [NADP] cytoplasmic (Homo sapiens, UniProt O75874, R132C); test: Inhibition of human N-terminal 6His-tagged IDH1 R132C mutant expressed in Escherichia coli Rosetta2 (DE3) in presence of alpha-ketoglutarate and NADPH by fluorescence based biochemical assay
Sequence (O75874 2-414 R132C limits assumed): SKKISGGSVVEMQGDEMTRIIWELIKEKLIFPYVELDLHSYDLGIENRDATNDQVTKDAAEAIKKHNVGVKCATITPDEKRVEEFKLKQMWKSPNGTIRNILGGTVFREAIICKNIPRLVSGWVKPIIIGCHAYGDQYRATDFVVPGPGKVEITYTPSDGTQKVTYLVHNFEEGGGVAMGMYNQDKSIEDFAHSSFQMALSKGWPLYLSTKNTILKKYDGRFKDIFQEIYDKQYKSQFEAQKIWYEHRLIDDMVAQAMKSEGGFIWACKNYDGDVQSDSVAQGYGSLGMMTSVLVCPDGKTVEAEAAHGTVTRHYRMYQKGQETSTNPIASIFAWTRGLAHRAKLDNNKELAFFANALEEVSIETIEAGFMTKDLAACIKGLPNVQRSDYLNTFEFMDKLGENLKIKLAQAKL
METRIC NAME: IC50
Note: state the figure and append the unit.

In: In one line, give reported IC50 of the entry COc1c(C)cc(NC(=O)c2nn(Cc3ccc(F)cc3)c3c2CN(C(=O)c2ccc[nH]2)C[C@@H]3C(N)=O)cc1C .
Out: 8.8 nM

----------
molecular target: UniProtKB O75874; assay: Inhibition of N-terminal His-tagged wild type IDH1 (unknown origin)
METRIC NAME: pIC50
pIC50 is a log-scale quantity: -log10 of the concentration expressed in molar.

In: Tell me measured pIC50 for COc1c(C)cc(NC(=O)c2nn(Cc3ccc(F)cc3)c3c2CN(C(=O)c2ccc[nH]2)C[C@@H]3C(N)=O)cc1C please.
Out: 6.33

----------
Each record here notes measured IC50.
biological target: Isocitrate dehydrogenase [NADP] cytoplasmic (Homo sapiens, UniProt O75874, R132H); assay: Inhibition of human IDH1 R132H mutant
Kindly provide the numeric value in nM only, without the unit symbol.

In: Identify measured IC50 associated with C[C@H](Nc1nccc(N2CCCC2=O)n1)c1cc(-c2ccc(Cl)cc2)no1
Out: 271

In: Note IC50 for the molecule shown: C[C@H](Nc1nccc(N2CCCC2=O)n1)c1nc(-c2ccc(Cl)cc2)no1
Out: 413

In: Tell us which IC50 value is on record for Cc1cn(C(=O)c2c(-c3c(Cl)cc(Cl)cc3Cl)noc2C(C)(C)F)c2cccc(/C=C/C(=O)O)c12
Out: 8.4

In: For the molecule C[C@H](Nc1nccc(N2CCCC2=O)n1)c1nc(-c2ccc(Cl)cc2)cs1 , give its reported IC50.
Out: 338
